Origin of values: the supplement of paper PMC9112550

Tested on: Escherichia coli TOP10
Assay: shrunken log2 fold change of peptide-encoding DNA abundance (4.5 h post-induction vs induction); higher = less antimicrobial activity (less host growth inhibition)
Settings: time post-induction: 4.5 h; library: site-saturation at positions 5, 18, 19, 20
Give measured shrunken log2 fold change for each item. Keep answers brief.
// no unit, no text: just the number

### Prompt Can you look up shrunken log2 fold change on Escherichia coli TOP10 for RRIRIRPPRLPRPRPRPRPRPRP ?
### Response 0.472

### Prompt What is its shrunken log2 fold change for Escherichia coli TOP10? Entry: RRIRERPPRLPRPRPRPECIPRP
### Response 0.248

### Prompt Missing value: shrunken log2 fold change, Escherichia coli TOP10, entry RRIRPRPPRLPRPRPRPHPCPRP . Fill in?
### Response -0.105

### Prompt Observed shrunken log2 fold change on Escherichia coli TOP10 for RRIRFRPPRLPRPRPRPALVPRP , please.
### Response 0.273

### Prompt What is its shrunken log2 fold change for Escherichia coli TOP10? Entry: RRIRYRPPRLPRPRPRPAATPRP
### Response 0.208

### Prompt # returns recorded shrunken log2 fold change (system: Escherichia coli TOP10) for RRIRRRPPRLPRPRPRPYHQPRP
### Response -0.0224

### Prompt Find the measured shrunken log2 fold change: item RRIRNRPPRLPRPRPRPLHMPRP , target or system Escherichia coli TOP10.
### Response -0.372

### Prompt Give Escherichia coli TOP10 shrunken log2 fold change for RRIRLRPPRLPRPRPRPNPDPRP
### Response 0.0991

### Prompt Write down the reported shrunken log2 fold change of RRIRGRPPRLPRPRPRPWDPPRP , test system: Escherichia coli TOP10.
### Response -0.11

### Prompt What value of shrunken log2 fold change on Escherichia coli TOP10 does RRIRQRPPRLPRPRPRPGVYPRP have?
### Response 0.0572

### Prompt Identify the measured shrunken log2 fold change of RRIRLRPPRLPRPRPRPDMGPRP for Escherichia coli TOP10.
### Response 0.0446

### Prompt # value lookup — system Escherichia coli TOP10, readout shrunken log2 fold change, item RRIRLRPPRLPRPRPRPNMSPRP
### Response -0.129

### Prompt Please state recorded shrunken log2 fold change (tested on Escherichia coli TOP10) of RRIRWRPPRLPRPRPRPAFHPRP
### Response 0.153

### Prompt Which measured shrunken log2 fold change belongs to RRIRDRPPRLPRPRPRPYFMPRP , tested on Escherichia coli TOP10?
### Response -0.735

### Prompt Hi! What's the reported shrunken log2 fold change for RRIRMRPPRLPRPRPRPWIGPRP on Escherichia coli TOP10?
### Response -0.0941

### Prompt Write down the reported shrunken log2 fold change of RRIRPRPPRLPRPRPRPQLGPRP , test system: Escherichia coli TOP10.
### Response 0.159

### Prompt Return shrunken log2 fold change measured with Escherichia coli TOP10 given this sequence: RRIRNRPPRLPRPRPRPPDYPRP
### Response -0.077

### Prompt Reported shrunken log2 fold change for Escherichia coli TOP10, given RRIRMRPPRLPRPRPRPQYPPRP ?
### Response -0.0385

### Prompt Write down the reported shrunken log2 fold change of RRIRTRPPRLPRPRPRPPQDPRP , test system: Escherichia coli TOP10.
### Response 0.608

### Prompt Checklist item: shrunken log2 fold change tested on Escherichia coli TOP10, entry RRIRARPPRLPRPRPRPPQIPRP , value?
### Response 0.599

### Prompt What value of shrunken log2 fold change on Escherichia coli TOP10 does RRIRWRPPRLPRPRPRPKNTPRP have?
### Response -0.127

### Prompt Hello, I am looking for reported shrunken log2 fold change with Escherichia coli TOP10 for RRIRTRPPRLPRPRPRPGCQPRP . Could you help?
### Response -0.0154

### Prompt Look up shrunken log2 fold change with Escherichia coli TOP10 for this sequence: RRIRARPPRLPRPRPRPCYYPRP
### Response -0.508

### Prompt I'm curious: which shrunken log2 fold change was measured for RRIRMRPPRLPRPRPRPHSHPRP tested on Escherichia coli TOP10?
### Response 0.0536

### Prompt Record lookup: for Escherichia coli TOP10, what shrunken log2 fold change belongs to RRIRCRPPRLPRPRPRPHLEPRP ?
### Response 0.0414

### Prompt Observed shrunken log2 fold change on Escherichia coli TOP10 for RRIRFRPPRLPRPRPRPTGFPRP , please.
### Response 0.0467

### Prompt Please state recorded shrunken log2 fold change (tested on Escherichia coli TOP10) of RRIRQRPPRLPRPRPRPSIEPRP
### Response -0.373

### Prompt Param readout = shrunken log2 fold change; param system = Escherichia coli TOP10; param query = RRIRKRPPRLPRPRPRPPKTPRP ; response: value
### Response 0.0147

### Prompt Form entry - test system: Escherichia coli TOP10; read-out: shrunken log2 fold change; sequence: RRIRMRPPRLPRPRPRPCQRPRP
### Response 0.0132

### Prompt Look up shrunken log2 fold change with Escherichia coli TOP10 for this sequence: RRIRHRPPRLPRPRPRPTAGPRP
### Response -0.0268

### Prompt Lab note: need shrunken log2 fold change with Escherichia coli TOP10 for entry RRIRSRPPRLPRPRPRPFKVPRP , please look it up.
### Response -0.0212

### Prompt Form field: shrunken log2 fold change recorded for RRIRERPPRLPRPRPRPDQLPRP with Escherichia coli TOP10 (enter value)
### Response -0.248

### Prompt Which shrunken log2 fold change is reported with Escherichia coli TOP10 for this entry: RRIRCRPPRLPRPRPRPSQYPRP ?
### Response -0.471

### Prompt Entry RRIRPRPPRLPRPRPRPHKYPRP , system Escherichia coli TOP10: what shrunken log2 fold change was measured?
### Response -0.29

### Prompt Kindly state the measured shrunken log2 fold change obtained for RRIRMRPPRLPRPRPRPFEIPRP with Escherichia coli TOP10.
### Response 0.0739

### Prompt Observed shrunken log2 fold change on Escherichia coli TOP10 for RRIRERPPRLPRPRPRPERDPRP , please.
### Response -0.0208

### Prompt I'm curious: which shrunken log2 fold change was measured for RRIRHRPPRLPRPRPRPVRHPRP tested on Escherichia coli TOP10?
### Response 0.251

### Prompt Please tell me: shrunken log2 fold change of RRIRARPPRLPRPRPRPIFDPRP , system Escherichia coli TOP10?
### Response 0.0844

### Prompt Provide value of shrunken log2 fold change for this record tested with Escherichia coli TOP10: RRIRQRPPRLPRPRPRPHNVPRP
### Response -0.0684

### Prompt Checklist item: shrunken log2 fold change tested on Escherichia coli TOP10, entry RRIRDRPPRLPRPRPRPNPMPRP , value?
### Response -0.0935

### Prompt Please provide the recorded shrunken log2 fold change for RRIRCRPPRLPRPRPRPFIKPRP , tested on Escherichia coli TOP10.
### Response -0.715

### Prompt Param readout= shrunken log2 fold change; system= Escherichia coli TOP10; entry= RRIRMRPPRLPRPRPRPQQHPRP ; returns value.
### Response 0.0483

### Prompt Give recorded shrunken log2 fold change with Escherichia coli TOP10 for the following sequence: RRIRMRPPRLPRPRPRPRREPRP
### Response 1.27

### Prompt Entry RRIRFRPPRLPRPRPRPSCFPRP , system Escherichia coli TOP10: what shrunken log2 fold change was measured?
### Response -0.0773

### Prompt Could you share what shrunken log2 fold change was measured for RRIRRRPPRLPRPRPRPANDPRP , tested on Escherichia coli TOP10?
### Response 0.275

### Prompt What is its shrunken log2 fold change for Escherichia coli TOP10? Entry: RRIRARPPRLPRPRPRPFEDPRP
### Response 0.0795

### Prompt Escherichia coli TOP10 / shrunken log2 fold change / RRIRLRPPRLPRPRPRPWETPRP : value?
### Response 0.0162

### Prompt # query: shrunken log2 fold change | item RRIRFRPPRLPRPRPRPYNQPRP | system: Escherichia coli TOP10
### Response -0.881

### Prompt Tell me reported shrunken log2 fold change for RRIRCRPPRLPRPRPRPIMEPRP , tested with Escherichia coli TOP10.
### Response -0.231

### Prompt Form entry - test system: Escherichia coli TOP10; read-out: shrunken log2 fold change; sequence: RRIRWRPPRLPRPRPRPKPSPRP
### Response 0.512

### Prompt Recorded shrunken log2 fold change for RRIRKRPPRLPRPRPRPMGIPRP with Escherichia coli TOP10, please?
### Response -0.00149

---

Tested on: Escherichia coli TOP10;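 note: peptides expressed intracellularly from a pBAD plasmid library in pooled LB shake-flask culture, induced with 0.3% L-arabinose, DNA abundance read by NGS, three biological replicates, DESeq2 with apeglm shrinkage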
Experiment: shrunken log2 fold change of peptide-encoding DNA abundance (4.5 h post-induction vs induction); higher = less antimicrobial activity (less host growth inhibition)
Conditions: time post-induction: 4.5 h; library: site-saturation at positions 5, 18, 19, 20
READOUT TYPE: shrunken log2 fold change
The answer should be written as a number, with no unit following it.

### Prompt Dear colleague, I am looking for the recorded shrunken log2 fold change of the following sequence: RRIRDRPPRLPRPRPRPKRTPRP
### Response 0.143

### Prompt # lookup: shrunken log2 fold change of RRIRGRPPRLPRPRPRPQYEPRP
### Response 0.0238

### Prompt State the recorded shrunken log2 fold change for this entry: RRIRQRPPRLPRPRPRPLTSPRP
### Response -0.254

### Prompt Endpoint output: shrunken log2 fold change of RRIRLRPPRLPRPRPRPRMVPRP . Value?
### Response 0.0504
